B1: ZNF449 (parent)
chain: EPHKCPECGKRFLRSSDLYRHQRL

# Variants of: B1
# assay overview: protein stability index of a GFP-peptide fusion (GPS, HEK-293T) (PSI 1-6); higher = more stable;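 also: lentivirally expressed fusions sorted by FACS into six bins by GFP to DsRed ratio, PSI derived from sequencing read proportions per bin multiplied by bin number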
# assay context: c terminus: a fixed tail appended
measured property: protein stability index
Number only, please.

Ask | # query: protein stability index of entry `R20I`
Reply | 3.56

Ask | # query: protein stability index of entry `E7K`
Reply | 4.14

Ask | # query: protein stability index of entry `C5E`
Reply | 3.56

Ask | # query: protein stability index of entry `D17C`
Reply | 2.66

Ask | # query: protein stability index of entry `P2L`
Reply | 3.63

Ask | # query: protein stability index of entry `S15V`
Reply | 3.58

Ask | # query: protein stability index of entry `K10A`
Reply | 3.97

Ask | # query: protein stability index of entry `S16W`
Reply | 2.66

Ask | # query: protein stability index of entry `E7L`
Reply | 3.51

Ask | # query: protein stability index of entry `R14E`
Reply | 3.84

Ask | # query: protein stability index of entry `C8A`
Reply | 3.24

Ask | # query: protein stability index of entry `P6Q`
Reply | 3.68

Ask | # query: protein stability index of entry `C8W`
Reply | 2.64

Ask | # query: protein stability index of entry `G9A`
Reply | 2.24

Ask | # query: protein stability index of entry `L13T`
Reply | 4.46

Ask | # query: protein stability index of entry `D17F`
Reply | 1.68

Ask | # query: protein stability index of entry `Q22N`
Reply | 3.36

Ask | # query: protein stability index of entry `S16R`
Reply | 3.52

Ask | # query: protein stability index of entry `D17A`
Reply | 2.32

Ask | # query: protein stability index of entry `C8K`
Reply | 3.75

Ask | # query: protein stability index of entry `R14W`
Reply | 2.75

Ask | # query: protein stability index of entry `D17S`
Reply | 2.61
